- Assay System: M2 mAChR (isolated rat atria) (Rattus norvegicus)
- Sequence (P10980 whole entry): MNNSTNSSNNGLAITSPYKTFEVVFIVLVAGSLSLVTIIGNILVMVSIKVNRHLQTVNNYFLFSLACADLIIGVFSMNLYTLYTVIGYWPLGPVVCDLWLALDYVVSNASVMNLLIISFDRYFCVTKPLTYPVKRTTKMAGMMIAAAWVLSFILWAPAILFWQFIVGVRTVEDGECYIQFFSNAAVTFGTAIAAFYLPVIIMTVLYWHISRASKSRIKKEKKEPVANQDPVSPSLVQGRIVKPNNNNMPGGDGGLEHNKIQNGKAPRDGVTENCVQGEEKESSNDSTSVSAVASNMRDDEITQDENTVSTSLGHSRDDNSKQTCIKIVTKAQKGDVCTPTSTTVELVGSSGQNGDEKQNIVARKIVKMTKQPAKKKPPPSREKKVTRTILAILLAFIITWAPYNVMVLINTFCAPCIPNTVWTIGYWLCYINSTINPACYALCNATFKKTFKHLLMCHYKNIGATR
- Assay Notes: Isolated rat atria, negative inotropic response
- Assay Setup: methacholine 1 μM, single experiment; read-out: IC50, inhibition of methacholine-induced responses in rat atria
Property Label: IC50

INSERT INTO results (query_smiles, measured) VALUES
  ('Cc1cc(F)c2[nH]c(=O)n(C3CCN(C4CCOCC4)CC3)c2c1', '8 µM');

###

- Assay System: M3 mAChR (isolated rat ileum) (Rattus norvegicus)
- Sequence (P08483 whole entry): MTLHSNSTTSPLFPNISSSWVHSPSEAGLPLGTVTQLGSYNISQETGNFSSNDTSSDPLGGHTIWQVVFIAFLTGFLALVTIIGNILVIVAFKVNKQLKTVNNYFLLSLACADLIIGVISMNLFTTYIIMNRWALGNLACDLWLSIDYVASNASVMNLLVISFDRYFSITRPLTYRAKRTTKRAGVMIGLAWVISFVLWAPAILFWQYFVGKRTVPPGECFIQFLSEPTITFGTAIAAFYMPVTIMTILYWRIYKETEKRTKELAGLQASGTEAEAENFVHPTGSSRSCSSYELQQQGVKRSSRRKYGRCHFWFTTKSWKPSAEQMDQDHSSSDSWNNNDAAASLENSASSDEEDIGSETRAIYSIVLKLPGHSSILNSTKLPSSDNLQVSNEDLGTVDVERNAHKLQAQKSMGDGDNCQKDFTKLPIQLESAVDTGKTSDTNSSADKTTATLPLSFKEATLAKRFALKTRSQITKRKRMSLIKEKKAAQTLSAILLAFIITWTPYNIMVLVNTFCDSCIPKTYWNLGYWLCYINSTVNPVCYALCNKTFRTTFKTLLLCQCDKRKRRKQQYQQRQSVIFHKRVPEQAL
- Assay Notes: Isolated rat ileum contraction
- Assay Setup: single experiment
Property Label: EC50 (µM)

INSERT INTO assay_data (query_smiles, property_label, measured) VALUES
  ('Cc1cc(F)c2[nH]c(=O)n(C3CCN(C4CCOCC4)CC3)c2c1', 'EC50', 7);

###

- Assay System: human mAChR M4 (Homo sapiens)
- Sequence (P08173 whole entry): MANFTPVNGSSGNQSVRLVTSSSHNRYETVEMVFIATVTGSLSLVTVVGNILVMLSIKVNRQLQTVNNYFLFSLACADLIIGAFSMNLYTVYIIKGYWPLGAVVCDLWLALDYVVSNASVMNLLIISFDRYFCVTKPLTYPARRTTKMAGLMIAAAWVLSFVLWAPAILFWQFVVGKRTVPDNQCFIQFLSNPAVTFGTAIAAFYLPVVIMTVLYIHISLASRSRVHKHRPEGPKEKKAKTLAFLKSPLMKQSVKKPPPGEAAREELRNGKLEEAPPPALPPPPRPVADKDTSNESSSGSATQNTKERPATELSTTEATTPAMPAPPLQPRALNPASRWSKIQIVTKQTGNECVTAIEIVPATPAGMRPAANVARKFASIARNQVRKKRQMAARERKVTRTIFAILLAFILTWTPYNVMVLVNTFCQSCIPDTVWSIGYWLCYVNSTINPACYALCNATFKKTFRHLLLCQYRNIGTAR
Property Label: Ki (nM)

INSERT INTO assay_data (query_smiles, assay_system, property_label, measured) VALUES
  ('Cc1cc(F)c2[nH]c(=O)n(C3CCN(C4CCOCC4)CC3)c2c1', 'human mAChR M4 (Homo sapiens)', 'Ki', 2000);

###

- Assay System: human M1 mAChR (Homo sapiens, UniProt P11229)
- Sequence (P11229 whole entry): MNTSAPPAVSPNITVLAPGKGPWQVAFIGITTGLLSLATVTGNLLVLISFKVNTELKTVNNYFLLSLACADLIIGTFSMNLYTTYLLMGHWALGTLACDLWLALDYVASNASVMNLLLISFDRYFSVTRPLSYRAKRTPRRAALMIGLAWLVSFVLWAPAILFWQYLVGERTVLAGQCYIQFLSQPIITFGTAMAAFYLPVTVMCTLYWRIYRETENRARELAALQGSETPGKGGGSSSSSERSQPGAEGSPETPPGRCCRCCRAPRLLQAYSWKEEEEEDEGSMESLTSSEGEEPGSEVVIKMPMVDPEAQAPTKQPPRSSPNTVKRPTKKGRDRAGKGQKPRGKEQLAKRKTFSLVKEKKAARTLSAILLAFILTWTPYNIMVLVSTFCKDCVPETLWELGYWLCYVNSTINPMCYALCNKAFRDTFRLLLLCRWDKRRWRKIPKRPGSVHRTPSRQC
- Assay Notes: Equilibrium [3H]-NMS binding, CHO Flp-In cell monolayers, wild-type M1
Property Label: Ki (nM)

INSERT INTO results (query_smiles, measured) VALUES
  ('Cc1cc(F)c2[nH]c(=O)n(C3CCN(C4CCOCC4)CC3)c2c1', 316);

Cited source: paper PMC5963591
